# Tested on: Plasmodium falciparum
# Test method notes: GSK_TCMDC: Inhibition of Plasmodium falciparum Dd2 in whole red blood cells, using parasite LDH activity as an index of growth. Test compounds present at 2uM
# Format: functional
Observed property: Inhibition (%)
Give a bare numeral; the unit % is implied.

{"columns": ["Compound", "Numeric readout"],
 "data": [
  ["O=C1O[C@H](c2ccccc2)[C@H](c2ccccc2)N(C(=O)OCc2ccccc2)[C@H]1Cc1ccccc1C1CCCC1", 0],
  ["CC(C)CCN1CCC(Oc2ccc(NC(=O)c3ccsc3)cc2Cl)CC1.O=C(O)C(F)(F)F", 81],
  ["Cc1ccc(CNc2cc(C(F)(F)F)nc(-c3ccc(S(C)(=O)=O)cc3)n2)cc1", 72],
  ["CS(=O)(=O)c1ccc(CNCc2ccc(-c3cccc(-c4nc5ccccc5[nH]4)c3)cc2)cc1.O=C(O)C(F)(F)F", 88],
  ["COc1c(C2=CCN(CCCCNC(=O)c3ccc(-c4ccc(C#N)cc4)cc3)CC2)c(C)cc2c1C(C)(C)CCC2(C)C", 88]
]}

Now look at this one.
Value wanted: Inhibition (Plasmodium falciparum) of entry Cc1cccc2nc(-c3ccc(-c4cccc(CN5CCN(CC6CCCN(C)C6)CC5)c4)s3)[nH]c12.O=C(O)C(F)(F)F (stereo unspecified)
99

---

# System: HepG2
# Test method notes: GSK_TCMDC: Percent inhibition of human HepG2 cell line. Test compounds present at 10uM.
# Format: functional
Reported Inhibition values for a set of molecules
Give a bare numeral; the unit % is implied.

Illustrative cases are given below, each with its answer.
{"columns": ["Molecule", "Reading unit", "Numeric readout"],
 "data": [
  ["O=C(O)C(F)(F)F.Oc1ccc(CCNc2nc(NCc3ccccc3Oc3ccc(C(F)(F)F)cc3)nc(N3CCNCC3)n2)cc1", "%", 26],
  ["CC1CCCN1Cc1cccc(-c2ccc(C(=O)NCCOc3ccccc3)s2)c1.O=C(O)C(F)(F)F (stereo not drawn)", "%", 26]
]}

Now look at this one.
Requested field: Inhibition. Item: "CNC(=O)c1cc(F)c(F)cc1Nc1nc(Nc2cccc(CS(C)(=O)=O)c2)ncc1Cl.O=CO"
52

---

Reported Inhibition values for a set of compounds
# System: Plasmodium falciparum
# Test method notes: GSK_TCMDC: Inhibition of Plasmodium falciparum Dd2 in whole red blood cells, using parasite LDH activity as an index of growth. Test compounds present at 2uM
# Assay type: functional
Give a bare numeral; the unit % is implied.

Illustrative cases are given below, each with its answer.
{"columns": ["Compound", "Numeric readout"],
 "data": [
  ["CC(=O)c1c(CC(=O)O)c2ccccc2n1O", 0],
  ["CCCC(C)Nc1nc(C)cc(N[C@@H](CC(C)C)C(=O)NCc2cccc(F)c2)n1.O=C(O)C(F)(F)F (stereo partly drawn)", 63],
  ["O=C(/C=C/c1ccc(Cl)c(Cl)c1)NCCCCCN1CCC(C(=O)Nc2ccc3c(c2)OCO3)CC1", 0],
  ["O=C(/C=C/c1ccc(Cl)c(Cl)c1)NCCCCCN1CCC(NC(=O)Nc2cccc(Cl)c2Cl)CC1", 35]
]}

Requested field: Inhibition. Item: "CCCOc1ccc(CCNCCCCNCCc2ccc(OCCC)c3ccccc23)c2ccccc12.CS(=O)(=O)O"
52

Requested field: Inhibition. Item: "COc1ccccc1-c1ccc2nnc(SCC(=O)Nc3ccc4c(c3)OCCO4)n2n1"
5

Requested field: Inhibition. Item: "C=CCn1c(Cc2ccccc2)nnc1Sc1ccc(C#N)c([N+](=O)[O-])c1"
43

Requested field: Inhibition. Item: "N#Cc1ccc(N(CCOC(=O)c2ccccc2)Cc2ccccc2C(F)(F)F)cc1C(F)(F)F"
67
